# targetSystem: T1, Claudin 18.2 (CLDN18.2), expressed on CHOS-CLDN 18.2 / HEK293-CLDN 18.2 / HCC827-CLDN 18.2 cells (human, UniProt P56856-2 1-261)
# T1 construct: whole, on cells; The species is not repeated for the CHOS-CLDN 18.2 cells; also called claudin-18A2
# testProtocol: FACS, MFI on CHOS-CLDN18.2 over MFI on CHOS-CLDN18.1, 10 µg/ml
Give CLDN18.2/CLDN18.1 (MFI ratio) for every item shown.
Answers are plain numbers.

Prompt: // CLDN18.2/CLDN18.1 (MFI ratio) lookup, key: QP14501448 (antibody, human IgG1, kappa, V domains shown, Humanized from QP199200) VH: EVQLVESGGGLVQPGGSLRLSCAASGFTFSSFGMHWVRQAPGKGLEWVAYISSGSNSIYYVDTVKGRFTISRDNAKNSLYLQMNSLRDEDTAVYYCARNAYYGNSFDYWGQGTLVTVSS VL: DIVMTQSPDSLAVSLGERATISCKSSQSLLNSGNQKNYLTWYQQKPGQPPKLLIYWASTRESGVPDRFTGSGSGTVFTLTISSLQAEDVAVYFCQNNYYYPLTFGGGTKVEIKR
Response: 501

Count: 4. Required value per item: CLDN18.2/CLDN18.1 (MFI ratio).
1. QP14501446 (antibody, human IgG1, kappa, V domains shown, Humanized from QP199200) VH: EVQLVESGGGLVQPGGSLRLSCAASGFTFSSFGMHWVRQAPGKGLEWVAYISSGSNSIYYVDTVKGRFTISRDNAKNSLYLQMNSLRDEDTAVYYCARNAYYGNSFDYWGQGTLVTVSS VL: DIVMTQSPDSLAVSLGERATINCKSSQSLLNSGNQKNYLTWYQQKPGQPPKLLIYWASTRESGVPDRFSGSGSGTDFTLTISSLQAEDVAVYYCQNNYYYPLTFGGGTKVEIKR
2. QP14641462 (antibody, human IgG1, kappa, V domains shown, Humanized from QP207208) VH: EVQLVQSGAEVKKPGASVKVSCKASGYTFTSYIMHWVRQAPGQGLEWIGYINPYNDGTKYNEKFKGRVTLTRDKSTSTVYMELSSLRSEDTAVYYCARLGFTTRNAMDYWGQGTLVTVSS VL: DIVMTQSPDSLAVSLGERATINCKSSQSLLNSGNQKNYLAWYQQKPGQPPKLLIYGASTRESGVPDRFTGSGSGTDFTLTISSVQAEDVAVYYCQNDHSYPFTFGQGTKLEIKR
3. QP14451440 (antibody, human IgG1, kappa, V domains shown, Humanized from QP192193; also called QP14401445) VH: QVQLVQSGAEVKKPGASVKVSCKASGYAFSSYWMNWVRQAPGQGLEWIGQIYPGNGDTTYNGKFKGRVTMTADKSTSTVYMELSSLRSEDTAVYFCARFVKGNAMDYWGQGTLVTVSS VL: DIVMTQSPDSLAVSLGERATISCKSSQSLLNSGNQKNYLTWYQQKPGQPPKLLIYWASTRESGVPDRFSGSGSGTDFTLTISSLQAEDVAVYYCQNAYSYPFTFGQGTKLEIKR
4. QP14451442 (antibody, human IgG1, kappa, V domains shown, Humanized from QP192193) VH: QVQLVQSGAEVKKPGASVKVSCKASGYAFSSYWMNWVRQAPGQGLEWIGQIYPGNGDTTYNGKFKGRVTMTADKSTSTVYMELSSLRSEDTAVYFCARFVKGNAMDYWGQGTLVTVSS VL: DIVMTQSPDSLAVSLGERATISCKSSQSLLNSGNQKNYLTWYQQKPGQPPKMLIYWASTRESGVPDRFSGSGSGIDFTLTISSVQAEDVAVYYCQNAYSYPFTFGQGTKLEIKR

Response:
1: 510; 2: 718; 3: 470; 4: 463
